// molecules with IC50 on Epithelial discoidin domain-containing receptor 1 (Homo sapiens, UniProt Q08345), multi-source literature

Past entries and their recorded results:
# molecule, IC50
rows = [
    ("O=C(Nc1cc(F)cc(OC(F)(F)F)c1)c1csc2c1CCN(Cc1cncnc1)C2", "< 0.025 µM"),
    ("O=C(Nc1cccc(OC(F)(F)F)c1)c1ccc2c(c1)N(Cc1ccc3[nH]cnc3c1)CC2", "0.05 to 0.08 µM"),
    ("CN(C)[C@@H]1CCN(Cc2cc(NC(=O)c3csc4c3CCN(Cc3cncnc3OC3CC3)C4)cc(C(F)(F)F)c2)C1", "0.025 to 0.05 µM"),
    ("CC1CN(Cc2cnc3[nH]ncc3c2)c2cc(C(=O)Nc3cncc(C(F)(F)F)c3)ccc21 (stereo not drawn)", "< 0.025 µM"),
    ("Cc1cn(-c2cc(NC(=O)c3ccc4c(c3)N(Cc3cnc5[nH]nc(C)c5c3)CC4)cc(C(F)(F)F)c2)cn1", "< 0.025 µM"),
    ("CC1CN(Cc2cnc3ccccn23)c2cc(C(=O)Nc3cccc(C(F)(F)F)c3)ccc21 (stereo not drawn)", "0.05 to 0.08 µM"),
    ("Cc1cn(-c2cc(NC(=O)c3ccc4c(c3)N(Cc3cnc5cnccn35)CC4C)cc(C(F)(F)F)c2)cn1 (racemic)", "0.025 to 0.05 µM"),
    ("O=C(Nc1cccc(C(F)(F)F)c1)c1ccc2c(c1)N(Cc1cnc3cnccn13)CC2", "< 0.025 µM"),
]

Write down measured IC50 (Epithelial discoidin domain-containing receptor 1 (Homo sapiens, UniProt Q08345)) for this molecule. O=C(Nc1cc(F)cc(OC(F)(F)F)c1)c1csc2c1CCN(Cc1cnc3[nH]ncc3c1)C2
< 0.025 µM

Give IC50 for this entry on Epithelial discoidin domain-containing receptor 1 (Homo sapiens, UniProt Q08345): CC(F)(F)c1cccc(NC(=O)c2csc3c2CCN(Cc2cnc(N)nc2)C3)c1
0.025 to 0.05 µM

# return IC50 of COCCN(C)Cc1cc(NC(=O)c2csc3c2CCN(C(=O)c2cnc4ccccn24)C3)cc(C(F)(F)F)c1 (system: Epithelial discoidin domain-containing receptor 1 (Homo sapiens, UniProt Q08345))
0.025 to 0.05 µM

Write IC50 of CC(C)n1nc(C(C)(C)C)cc1NC(=O)c1csc2c1CCN(C(=O)c1cnc3ccccn13)C2 ; system used: Epithelial discoidin domain-containing receptor 1 (Homo sapiens, UniProt Q08345)
0.025 to 0.05 µM

# return IC50 for Cc1cn(-c2cc(NC(=O)c3ccc4c(c3)N(Cc3cnc5[nH]ccc5c3)CC4)cc(C(F)(F)F)c2)cn1 , test system: Epithelial discoidin domain-containing receptor 1 (Homo sapiens, UniProt Q08345)
< 0.025 µM

Recall the reported IC50 of CC(F)(F)c1cccc(NC(=O)c2csc3c2CCN(Cc2cncnc2)C3)c1 on Epithelial discoidin domain-containing receptor 1 (Homo sapiens, UniProt Q08345) and write it down.
0.05 to 0.08 µM

With Epithelial discoidin domain-containing receptor 1 (Homo sapiens, UniProt Q08345) as the test system, provide measured IC50 for this molecule: CN1CCN(c2cc(NC(=O)c3csc4c3CCN(C(=O)c3cnn5ccncc35)C4)cc(C(F)(F)F)c2)CC1
0.05 to 0.08 µM

Given O=C(Nc1cc(F)cc(C(F)(F)F)c1)c1csc2c1CCN(C(=O)c1cnn3cccnc13)C2 , report its IC50 on Epithelial discoidin domain-containing receptor 1 (Homo sapiens, UniProt Q08345).
< 0.025 µM

Provide IC50, recorded with Epithelial discoidin domain-containing receptor 1 (Homo sapiens, UniProt Q08345), of CC1CN(Cc2cnc3cnccn23)c2cc(C(=O)Nc3cccc(C(F)(F)F)c3)ccc21 (stereo not drawn)
< 0.025 µM

====

Below are IC50 values for Epithelial discoidin domain-containing receptor 1 (Homo sapiens, UniProt Q08345) collected from several publications.

Solved cases below.
# substance.smiles, IC50
records = [
    ("Cc1n[nH]c2ncc(CN3CCc4c(C(=O)Nc5cc(C(C)(C)C)no5)csc4C3)cc12", "< 25 nM"),
    ("Cc1cccc(-c2cc3nccc(Nc4ccccc4)c3s2)c1", "7050 nM"),
    ("CN(C)Cc1cc(NC(=O)c2ccc3c(c2)N(Cc2cnc4cnccn24)CC3)cc(C(F)(F)F)c1", "25 to 50 nM"),
    ("O=C(Nc1cc(C(F)(F)F)ccc1F)c1csc2c1CCN(Cc1cncnc1)C2", "50 to 80 nM"),
    ("O=C(Nc1cncc(C(F)(F)F)c1)c1csc2c1CCN(Cc1ncnc3[nH]ccc13)C2", "25 to 50 nM"),
]

Under Epithelial discoidin domain-containing receptor 1 (Homo sapiens, UniProt Q08345): report IC50 of CN1CCC(Oc2ccc(NC(=O)c3ccc4c(c3)N(Cc3cnc5cnccn35)CC4)cc2C(F)(F)F)CC1 .
50 to 80 nM

====

pIC50: −log10 of the molar value.
Multi-source literature compilation: pIC50 on Epithelial discoidin domain-containing receptor 1 (Homo sapiens, UniProt Q08345).

Past entries and their recorded results:
# compound, pIC50
records = [
    ("CN1CCN(c2ccc3ncc(C(=O)N4CCc5c(C(=O)Nc6cc(C(C)(C)C)n(C)n6)csc5C4)n3c2)CC1", "7.30 to 7.60"),
    ("CC(C)(C)c1cc(NC(=O)c2csc3c2CCN(C(=O)c2cnc4n2CCOC4)C3)on1", "7.30 to 7.60"),
    ("O=C(Nc1cc(F)cc(OC(F)(F)F)c1)c1csc2c1CCN(C(=O)c1cnc3ccccn13)C2", "> 7.60"),
    ("Cn1nc(C2(C(F)(F)F)CC2)cc1NC(=O)c1csc2c1CCN(C(=O)c1cnc3ccccn13)C2", "7.10 to 7.30"),
]

Give the measured pIC50 for CC(C)(C)c1cc(NC(=O)c2csc3c2CCN(C(=O)c2cnc4ccccn24)C3)n(-c2ccccc2)n1
7.30 to 7.60

Provide only the value of recorded pIC50 for Cc1ccc(C(=O)Nc2ccccn2)cc1-c1cccc(-c2cnc3cc(C4=CCCCC4)cnn23)c1
> 6.30

Give reported pIC50 value for Cc1cn(-c2cc(NC(=O)c3csc4c3CCN(C(=O)c3cnc5ccccn35)C4)cc(C(F)(F)F)c2)cn1
> 7.60

Entry O=C(Nc1cc(CN2CCOCC2)cc(C(F)(F)F)c1)c1csc2c1CCN(C(=O)c1cnc3ccccn13)C2 needs its pIC50 filled in; supply it.
> 7.60

Give the value of pIC50 reported for the following: Cc1cn(-c2cc(NC(=O)c3ccc4c(c3)N(C(=O)c3cnc5[nH]ncc5c3)CC4C)cc(C(F)(F)F)c2)cn1 (stereo not drawn)
> 7.60

Dear colleague, please send me the reported pIC50 for Nc1ncc(CN2CCc3c(C(=O)Nc4cncc(C(F)(F)F)c4)csc3C2)cn1 when you can.
7.10 to 7.30

Identify measured pIC50 corresponding to Cc1ccc(C(=O)Nc2ccccn2)cc1C#Cc1cnc2cc(C3CCCC3)cnn12
> 6.30

For the compound O=C(Nc1cc(F)cc(C(F)(F)F)c1)c1ccc2c(c1)N(Cc1cnc3[nH]ncc3c1)CC2 , report pIC50.
> 7.60

For the compound Cn1nc(NC(=O)c2ccc3c(c2)N(Cc2cnc4cnccn24)CC3)cc1C(C)(C)C , report pIC50.
7.30 to 7.60

Give the measured pIC50 for O=C(Nc1ccc(OC2CCOC2)c(C(F)(F)F)c1)c1csc2c1CCN(C(=O)c1cnc3ccccn13)C2 (stereo not drawn)
> 7.60

Report pIC50, nothing else, for this compound: Cc1n[nH]c2ncc(CN3CCc4c(C(=O)Nc5cc(C(C)(C)C)nn5C)csc4C3)cc12
> 7.60

====

pIC50: −log10 of the molar value.
Assembled from different publications: pIC50 for Epithelial discoidin domain-containing receptor 1 (Homo sapiens, UniProt Q08345).

# molecule, readout.value
records = [
    ("O=C(Nc1cncc(C(F)(F)F)c1)c1csc2c1CCN(Cc1cncc(F)c1)C2", "7.30 to 7.60"),
    ("CC(C)(C)c1cc(NC(=O)c2csc3c2CCN(C(=O)c2cnc4ccccn24)C3)n(-c2ccc(F)cc2)n1", "7.30 to 7.60"),
]

State pIC50 on Epithelial discoidin domain-containing receptor 1 (Homo sapiens, UniProt Q08345). Entry: O=C(Nc1cc(C(F)(F)F)cnn1)c1csc2c1CCN(C(=O)c1cnc3ccccn13)C2
7.30 to 7.60

Look up Epithelial discoidin domain-containing receptor 1 (Homo sapiens, UniProt Q08345) data: pIC50 of CN1CCC(Oc2ccc(NC(=O)c3csc4c3CCN(C(=O)c3cnc5ccccn35)C4)cc2C(F)(F)F)CC1 , then report it.
7.30 to 7.60

State the measured pIC50 (Epithelial discoidin domain-containing receptor 1 (Homo sapiens, UniProt Q08345)) of O=C(Nc1cc(F)cc(C(F)(F)F)c1)c1csc2c1CCN(Cc1cnc3[nH]ncc3c1)C2
> 7.60

// output pIC50; input CN(C)CC(=O)Nc1cncc(CN2CCc3c(C(=O)Nc4cccc(C(F)(F)F)c4)csc3C2)c1 ; system Epithelial discoidin domain-containing receptor 1 (Homo sapiens, UniProt Q08345)
7.30 to 7.60

Look up and report pIC50, with Epithelial discoidin domain-containing receptor 1 (Homo sapiens, UniProt Q08345) as system, for Cc1cn(-c2cc(NC(=O)c3ccc4c(c3)N(C(=O)c3cnc5cnccn35)CC4C)cc(C(F)(F)F)c2)cn1 (stereo not shown)
7.10 to 7.30
